Reported DC50 values are given for each entry in this list.
Tested on: AR protein in VCaP cells (Homo sapiens, UniProt P10275)
Construct: endogenous in cells; host or cells: VCaP cells
Sequence (P10275 whole entry): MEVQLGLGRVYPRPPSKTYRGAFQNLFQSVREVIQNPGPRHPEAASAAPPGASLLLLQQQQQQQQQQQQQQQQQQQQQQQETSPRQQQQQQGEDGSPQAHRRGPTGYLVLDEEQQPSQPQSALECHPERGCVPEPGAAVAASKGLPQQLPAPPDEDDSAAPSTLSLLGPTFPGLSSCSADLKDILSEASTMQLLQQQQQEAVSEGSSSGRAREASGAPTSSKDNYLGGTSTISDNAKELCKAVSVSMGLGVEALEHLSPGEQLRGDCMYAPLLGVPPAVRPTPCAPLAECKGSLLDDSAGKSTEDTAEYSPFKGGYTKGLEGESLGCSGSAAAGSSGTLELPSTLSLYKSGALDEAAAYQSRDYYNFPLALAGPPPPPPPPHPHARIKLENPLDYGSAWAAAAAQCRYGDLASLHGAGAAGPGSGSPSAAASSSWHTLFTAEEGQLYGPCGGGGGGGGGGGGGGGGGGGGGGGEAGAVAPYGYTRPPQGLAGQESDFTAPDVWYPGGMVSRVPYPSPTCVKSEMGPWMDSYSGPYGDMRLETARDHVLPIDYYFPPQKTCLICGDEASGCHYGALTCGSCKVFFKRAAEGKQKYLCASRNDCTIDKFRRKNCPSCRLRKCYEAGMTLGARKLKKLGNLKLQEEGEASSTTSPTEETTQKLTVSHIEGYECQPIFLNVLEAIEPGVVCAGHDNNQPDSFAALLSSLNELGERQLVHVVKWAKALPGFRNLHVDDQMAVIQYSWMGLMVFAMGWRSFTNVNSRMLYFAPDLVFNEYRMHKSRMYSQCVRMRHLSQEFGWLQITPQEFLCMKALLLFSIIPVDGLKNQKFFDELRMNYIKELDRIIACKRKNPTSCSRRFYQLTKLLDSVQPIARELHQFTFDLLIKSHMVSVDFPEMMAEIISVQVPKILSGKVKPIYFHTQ
Measurement notes: VCAP AR Degradation Assay
Assay type: cell-based
Run conditions: 24 h, AR ELISA, concentration at 50% of DMSO control (50% AR degradation)
Description: VCAP AR Degradation Assay. Test compounds were pre-dispensed into a Corning CellBind 96-well clear bottom plate (Cat #3300) using an acoustic dispenser to make a 10-point concentration series at 1:3 dilution for each compound. The final top concentration of each compound was 5 μM. DMSO at a final concentration of 0.1% was used as a control. […] AR levels in compound-treated wells were normalized to that of DMSO control and expressed as percent of control (PoC) (y). […]
Where a name gives a salt, the structure may show the parent alone.

- Compound: "CC1(C)C(=O)N(c2ccc(C#N)c(C(F)(F)F)c2)C(=S)N1[C@H]1CC[C@H](OCCN2CCN(CC(=O)Nc3cccc(NC4CCC(=O)NC4=O)c3)[C@@H](C(F)(F)F)C2)CC1 (stereo partly drawn) [Cmpd 19, hydrochloride]"
  DC50: "5 to 10 nM"
- Compound: "CC1(C)C(=O)N(c2ccc(C#N)c(C(F)(F)F)c2)C(=S)N1[C@H]1CC[C@H](OCCN2CCN(CC(=O)Nc3cc(C#N)cc(NC4CCC(=O)NC4=O)c3)[C@@H](C(F)(F)F)C2)CC1 (stereo partly drawn) [Cmpd 34]"
  DC50: "5 to 10 nM"
- Compound: "C[C@@H]1C[C@H](OCC[C@H]2CC[C@H](N3C(=S)N(c4ccc(C#N)c(C(F)(F)F)c4)C(=O)C3(C)C)CC2)C[C@H](C)N1CC(=O)Nc1cccc(NC2CCC(=O)NC2=O)c1 (stereo partly drawn) [Cmpd 36]"
  DC50: "10 to 100 nM"
- Compound: "CC1(C)C(=O)N(c2ccc(C#N)c(C(F)(F)F)c2)C(=S)N1[C@H]1CC[C@H](OCCN2CCN(CC(=O)Nc3cc(F)cc(NC4CCC(=O)NC4=O)c3)[C@@H](C(F)(F)F)C2)CC1 (stereo partly drawn) [Cmpd 23]"
  DC50: "5 to 10 nM"
- Compound: "C[C@@H]1CN(CCO[C@H]2CC[C@H](N3C(=S)N(c4cnc(C#N)c(C(F)(F)F)c4)C(=O)C3(C)C)CC2)C[C@H](C)N1CC(=O)Nc1cccc(NC2CCC(=O)NC2=O)c1 (stereo partly drawn) [Cmpd 5, hydrochloride]"
  DC50: "≤ 5 nM"

[ask] // lookup DC50 for C[C@@H]1CN(CCCO[C@H]2CC[C@H](N3C(=S)N(c4cnc(C#N)c(C(F)(F)F)c4)C(=O)C3(C)C)CC2)C[C@H](C)N1CC(=O)Nc1cccc(NC2CCC(=O)NC2=O)c1 (stereo partly drawn) [Cmpd 10, hydrochloride]
[reply] ≤ 5 nM

---

Tested on: AR protein in VCaP cells (Homo sapiens)
Construct: endogenous in cells; host or cells: VCaP cells
Measurement notes: VCAP AR Degradation Assay
Format: cell-based
Run conditions: 24 h, AR ELISA, lowest measured AR level normalized to DMSO control
Counter-ions that a name gives are not always drawn.
Endpoint: Y

Here's what some known entries look like.
- Molecule: "CC1(C)C(=O)N(c2cnc(C#N)c(C(F)(F)F)c2)C(=S)N1[C@H]1CC[C@H](OCCN2CCN(CC(=O)Nc3cc(C#N)cc(NC4CCC(=O)NC4=O)c3)[C@@H](C(F)(F)F)C2)CC1 (stereo partly shown)"
  Y: "* (0<Y≤15%)"
- Molecule: "C[C@@H]1CN(CCC[C@H]2CC[C@H](N3C(=S)N(c4ccc(C#N)c(C(F)(F)F)c4)C(=O)C3(C)C)CC2)C[C@H](C)N1CC(=O)Nc1cc(NC2CCC(=O)NC2=O)ccc1F (stereo partly shown)"
  Y: "*** (25%<Y<50%)"
- Molecule: "C[C@@H]1CN(CCO[C@H]2CC[C@H](N3C(=S)N(c4cnc(C#N)c(C(F)(F)F)c4)C(=O)C3(C)C)CC2)C[C@H](C)N1CC(=O)Nc1cccc(NC2CCC(=O)NC2=O)c1 (stereo partly shown) [Cmpd 5, hydrochloride]"
  Y: "*** (25%<Y<50%)"
- Molecule: "C[C@@H]1C[C@H](OCCO[C@H]2CC[C@H](N3C(=S)N(c4cnc(C#N)c(C(F)(F)F)c4)C(=O)C3(C)C)CC2)C[C@H](C)N1CC(=O)Nc1cccc(NC2CCC(=O)NC2=O)c1 (stereo partly shown)"
  Y: "** (15%<Y≤20%)"
- Molecule: "CC1(C)C(=O)N(c2cnc(C#N)c(C(F)(F)F)c2)C(=S)N1[C@H]1CC[C@H](OCCC2CCN(CC(=O)Nc3cccc(NC4CCC(=O)NC4=O)c3)CC2(F)F)CC1 (stereo partly shown) [Cmpd 46, hydrochloride]"
  Y: "* (0<Y≤15%)"
- Molecule: "C[C@@H]1CN(CCCO[C@H]2CC[C@H](N3C(=S)N(c4ccc(C#N)c(Cl)c4)C(=O)C3(C)C)CC2)C[C@H](C)N1CC(=O)Nc1cccc(NC2CCC(=O)NC2=O)c1 (stereo partly shown) [Cmpd 9, hydrochloride]"
  Y: "*** (25%<Y<50%)"
- Molecule: "C[C@@H]1CN(CCCC[C@H]2CC[C@H](N3C(=S)N(c4ccc(C#N)c(C(F)(F)F)c4)C(=O)C3(C)C)CC2)C[C@H](C)N1CC(=O)Nc1cccc(NC2CCC(=O)NC2=O)c1 (stereo partly shown) [Cmpd 17, hydrochloride]"
  Y: "*** (25%<Y<50%)"
- Molecule: "CC1(C)C(=O)N(c2cnc(C#N)c(C(F)(F)F)c2)C(=S)N1[C@H]1CC[C@H](OCCN2CCN(CC(=O)Nc3cccc(N[C@@H]4CCC(=O)NC4=O)c3)[C@@H](C(F)(F)F)C2)CC1 [Cmpd 42, hydrochloride]"
  Y: "* (0<Y≤15%)"
- Molecule: "C[C@@H]1C[C@H](CCO[C@H]2CC[C@H](N3C(=S)N(c4cnc(C#N)c(C(F)(F)F)c4)C(=O)C3(C)C)CC2)C[C@H](C)N1CC(=O)Nc1cccc(NC2CCC(=O)NC2=O)c1 (stereo partly shown)"
  Y: "* (0<Y≤15%)"
- Molecule: "C[C@@H]1CN(CCO[C@H]2CC[C@H](N3C(=S)N(c4cnc(C#N)c(C(F)(F)F)c4)C(=O)C3(C)C)CC2)C[C@H](C)N1CC(=O)Nc1cccc(N[C@H]2CCC(=O)NC2=O)c1"
  Y: "* (0<Y≤15%)"

[ask] For C[C@@H]1CN(CCC[C@H]2CC[C@H](N3C(=S)N(c4ccc(C#N)c(C(F)(F)F)c4)C(=O)C3(C)C)CC2)C[C@H](C)N1CC(=O)Nc1cccc(N[C@H]2CCC(=O)NC2=O)c1 , what is its reported Y?
[reply] ** (15%<Y≤20%)

[ask] Cool, now C[C@@H]1C[C@@H](CCO[C@H]2CC[C@H](N3C(=S)N(c4ccc(C#N)c(C(F)(F)F)c4)C(=O)C3(C)C)CC2)C[C@H](C)N1CC(=O)Nc1cccc(NC2CCC(=O)NC2=O)c1 (stereo partly shown) [Cmpd 15, hydrochloride]
[reply] * (0<Y≤15%)

[ask] Moving on to C[C@@H]1CN(CCC[C@H]2CC[C@H](N3C(=S)N(c4ccc(C#N)c(Cl)c4)C(=O)C3(C)C)CC2)C[C@H](C)N1CC(=O)Nc1cccc(NC2CCC(=O)NC2=O)c1 (stereo partly shown) [Cmpd 14, hydrochloride]
[reply] *** (25%<Y<50%)

[ask] Similarly, CC1(C)C(=O)N(c2cnc(C#N)c(C(F)(F)F)c2)C(=S)N1[C@H]1CC[C@H](OCCCN2CCN(CC(=O)Nc3cccc(NC4CCC(=O)NC4=O)c3)[C@@H](C(F)(F)F)C2)CC1 (stereo partly shown) ?
[reply] * (0<Y≤15%)

[ask] Try this molecule too: C[C@@H]1C[C@H](CCO[C@H]2CC[C@H](N3C(=S)N(c4ccc(C#N)c(C(F)(F)F)c4)C(=O)C3(C)C)CC2)C[C@H](C)N1CC(=O)Nc1cccc(NC2CCC(=O)NC2=O)c1 (stereo partly shown) [Cmpd 16, hydrochloride]
[reply] * (0<Y≤15%)

[ask] Follow-up entry: CC1(C)C(=O)N(c2ccc(C#N)c(C(F)(F)F)c2)C(=S)N1[C@H]1CC[C@H](OCCC2CCN(CC(=O)Nc3cccc(NC4CCC(=O)NC4=O)c3)CC2(F)F)CC1 (stereo partly shown)
[reply] * (0<Y≤15%)

[ask] Likewise for CC1(C)C(=O)N(c2cnc(C#N)c(C(F)(F)F)c2)C(=S)N1[C@H]1CC[C@H](OCCN2CCN(CC(=O)Nc3cc(F)cc(NC4CCC(=O)NC4=O)c3)[C@@H](C(F)(F)F)C2)CC1 (stereo partly shown) ?
[reply] * (0<Y≤15%)

[ask] Follow-up item: C[C@@H]1CN(CCO[C@H]2CC[C@H](N3C(=S)N(c4ccc(C#N)c(Cl)c4)C(=O)C3(C)C)CC2)C[C@H](C)N1CC(=O)Nc1cccc(NC2CCC(=O)NC2=O)c1 (stereo partly shown) [Cmpd 4, hydrochloride]
[reply] ** (15%<Y≤20%)

[ask] Now this one: C[C@@H]1C[C@H](OCCO[C@H]2CC[C@H](N3C(=S)N(c4ccc(C#N)c(C(F)(F)F)c4)C(=O)C3(C)C)CC2)C[C@H](C)N1CC(=O)Nc1cccc(NC2CCC(=O)NC2=O)c1 (stereo partly shown)
[reply] *** (25%<Y<50%)
